target_or_test_system: Brd2(1)*(Met165Ala) (Homo sapiens, UniProt P25440, M165A)
Sequence (P25440 74-180 M165A limits assumed): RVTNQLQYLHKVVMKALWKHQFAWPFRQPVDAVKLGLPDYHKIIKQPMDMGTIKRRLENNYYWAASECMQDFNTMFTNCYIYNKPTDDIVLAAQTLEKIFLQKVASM
method_summary: DSF thermal shift
Format: binding
Parameters: Plasmids of the eight single BET bromodomain constructs Brd2(1), Brd2(2), Brd3(1), Brd3(2); His6 (N); made in house; host or cells: E. coli BL21(DE3)
details: mutant
recorded_metric: ΔTm Brd2(1)*(Met165-Ala)

compound=COc1ccc(-c2ccc(S(=O)(=O)Nc3ccc4c(c3)CN(C)C(=O)N4)cc2)cc1 target_or_test_system="Brd2(1)*(Met165Ala) (Homo sapiens, UniProt P25440, M165A)" recorded_metric="ΔTm Brd2(1)*(Met165-Ala)" observed_measurement="5.3 ± 0.3 K"
compound=CN1Cc2cc(NS(=O)(=O)c3ccc(-c4ccccc4)cc3)ccc2NC1=O target_or_test_system="Brd2(1)*(Met165Ala) (Homo sapiens, UniProt P25440, M165A)" recorded_metric="ΔTm Brd2(1)*(Met165-Ala)" observed_measurement="1.5 ± 0.4 K"
compound=COc1ccc(OC)c(S(=O)(=O)Nc2ccc3c(c2)CN(C)C(=O)N3)c1 target_or_test_system="Brd2(1)*(Met165Ala) (Homo sapiens, UniProt P25440, M165A)" recorded_metric="ΔTm Brd2(1)*(Met165-Ala)" observed_measurement="4.6 ± 0.2 K"
compound=COc1ccc(S(=O)(=O)Nc2ccc3c(c2)CN(C)C(=O)N3)cc1 target_or_test_system="Brd2(1)*(Met165Ala) (Homo sapiens, UniProt P25440, M165A)" recorded_metric="ΔTm Brd2(1)*(Met165-Ala)" observed_measurement="0.0 ± 0.3 K"
compound=COc1cc(C)ccc1S(=O)(=O)Nc1ccc2c(c1)CN(C)C(=O)N2 target_or_test_system="Brd2(1)*(Met165Ala) (Homo sapiens, UniProt P25440, M165A)" recorded_metric="ΔTm Brd2(1)*(Met165-Ala)" observed_measurement="1.2 ± 0.2 K"
compound=COc1ccc(S(=O)(=O)Nc2ccc3c(c2)CN(C)C(=O)N3)c(OC)c1 target_or_test_system="Brd2(1)*(Met165Ala) (Homo sapiens, UniProt P25440, M165A)" recorded_metric="ΔTm Brd2(1)*(Met165-Ala)" observed_measurement="1.5 ± 0.2 K"
compound=Cc1cc(C)cc(S(=O)(=O)Nc2ccc3c(c2)CN(C)C(=O)N3)c1 target_or_test_system="Brd2(1)*(Met165Ala) (Homo sapiens, UniProt P25440, M165A)" recorded_metric="ΔTm Brd2(1)*(Met165-Ala)" observed_measurement="1.1 ± 0.5 K"
compound=Cc1cccc(S(=O)(=O)Nc2ccc3c(c2)CN(C)C(=O)N3)c1 target_or_test_system="Brd2(1)*(Met165Ala) (Homo sapiens, UniProt P25440, M165A)" recorded_metric="ΔTm Brd2(1)*(Met165-Ala)" observed_measurement="0.0 ± 0.1 K"
compound=CN1Cc2cc(NS(=O)(=O)c3ccc(C(C)(C)C)cc3)ccc2NC1=O target_or_test_system="Brd2(1)*(Met165Ala) (Homo sapiens, UniProt P25440, M165A)" recorded_metric="ΔTm Brd2(1)*(Met165-Ala)" observed_measurement="5.1 ± 0.2 K"
compound="COc1ccccc1S(=O)(=O)Nc1ccc2c(c1)CN(C)C(=O)N2 [PFI-1, reference compound]" target_or_test_system="Brd2(1)*(Met165Ala) (Homo sapiens, UniProt P25440, M165A)" recorded_metric="ΔTm Brd2(1)*(Met165-Ala)" observed_measurement="1.6 ± 0.1 K"

Provenance of the data: patent US20170122958A1
